Collected pKd values appear next to each entry.
experimental_target: full-length WT p97 (Homo sapiens, UniProt P55072)
Sequence (P55072 whole entry): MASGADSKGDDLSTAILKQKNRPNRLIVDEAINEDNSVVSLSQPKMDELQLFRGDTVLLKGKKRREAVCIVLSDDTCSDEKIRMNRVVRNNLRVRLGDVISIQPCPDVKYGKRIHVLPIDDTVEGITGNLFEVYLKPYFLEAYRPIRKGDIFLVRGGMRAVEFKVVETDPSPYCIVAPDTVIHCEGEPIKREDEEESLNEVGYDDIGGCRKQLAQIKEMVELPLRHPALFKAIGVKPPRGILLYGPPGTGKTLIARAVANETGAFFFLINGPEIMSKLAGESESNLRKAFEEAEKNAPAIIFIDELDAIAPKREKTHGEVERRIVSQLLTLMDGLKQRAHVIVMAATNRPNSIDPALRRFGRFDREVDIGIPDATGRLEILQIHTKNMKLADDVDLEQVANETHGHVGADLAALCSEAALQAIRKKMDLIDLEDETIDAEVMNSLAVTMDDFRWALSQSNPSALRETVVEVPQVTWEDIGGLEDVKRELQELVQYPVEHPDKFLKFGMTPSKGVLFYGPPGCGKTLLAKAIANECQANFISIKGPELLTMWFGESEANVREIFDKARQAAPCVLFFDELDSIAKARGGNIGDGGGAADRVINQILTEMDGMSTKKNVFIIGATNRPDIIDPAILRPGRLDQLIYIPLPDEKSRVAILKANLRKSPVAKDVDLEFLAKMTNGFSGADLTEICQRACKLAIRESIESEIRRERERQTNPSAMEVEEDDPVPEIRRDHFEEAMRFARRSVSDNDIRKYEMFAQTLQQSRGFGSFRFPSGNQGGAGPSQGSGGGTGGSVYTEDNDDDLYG
protocol_notes: SPR nucleotide binding to full-length WT p97
condition_label: read-out: KD, second, weaker binding affinity (D2 domain), 20 °C
Units for pKd: none; it is -log10 of a concentration expressed in mol/L.

*Q* # query: pKd of entry Nc1ncnc2c1ncn2[C@@H]1O[C@H](COP(=O)(O)OP(=O)(O)OP(=O)(O)O)[C@@H](O)[C@H]1O
*A* 5.26

*Q* # query: pKd of entry Nc1ncnc2c1ncn2[C@@H]1O[C@H](COP(=O)(O)OP(=O)(O)O)[C@@H](O)[C@H]1O
*A* 5.41
